Biological target: T1, K758E (Drosophila melanogaster, UniProt Q9W1K4 512-819, K758E)
T1 sequence: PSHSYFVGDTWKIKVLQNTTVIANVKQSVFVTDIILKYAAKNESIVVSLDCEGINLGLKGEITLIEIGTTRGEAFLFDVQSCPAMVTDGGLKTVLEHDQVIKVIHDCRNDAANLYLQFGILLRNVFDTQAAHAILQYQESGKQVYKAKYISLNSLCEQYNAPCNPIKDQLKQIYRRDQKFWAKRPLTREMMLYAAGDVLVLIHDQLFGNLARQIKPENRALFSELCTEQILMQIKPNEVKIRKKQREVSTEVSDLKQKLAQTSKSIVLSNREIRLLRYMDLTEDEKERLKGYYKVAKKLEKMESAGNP
Experiment: fluorescence anisotropy; FA: 20 mM HEPES-NaOH pH 7.5, 100 mM NaCl, 10% glycerol, 20 C, 10 nM FAM-RNA; competition: 150 nM Egl512-819 + 10 nM FAM-K10 TLS, same buffer
Conditions: protein: recombinant; tags: N-terminal GST; label: 5'-6-FAM; hairpin with two bulges
test readout: pKd
// scale note: pKd = -log10(conc_M); give the bare number

Q) So what does the record say about pKd for CUUGAUUGUAUUUUUAAAUUAAUUCUUAAAAACUACAAAUUAAG (structured_RNA) [K10 TLS (FAM)] ?
A) 6.42

Origin of values: paper doi:10.1101/2025.08.03.668247
